For each of the compounds below, state its melting point.

Consider CC(C)[C@@H]1C(=O)N(CC(=O)N[C@@H](Cc2ccccc2)C(=O)C2=NC(C)(C)CO2)C(c2ccccc2)=CN1C(=O)c1ccc[n+](CC(N)=O)c1.[Br-] . Its measured melting point is 110 °C

Measured melting point, CC(C)[C@@H]1C(=O)N(CC(=O)N[C@@H](Cc2ccccc2)C(=O)C2=NCC(C)(C)S2)C(c2ccccc2)=CN1C(=O)c1ccncc1 : 100 to 125 °C

According to the records, this compound CC(C)[C@@H]1C(=O)N(CC(=O)N[C@@H](Cc2ccccc2)C(=O)C2=NC(C)(C)CO2)C(c2ccccc2)=CN1C(=O)c1ccc[n+](Cc2ccccc2)c1.[Br-] displays melting point of 135 to 150 °C

Per the record, CC(C)[C@@H]1C(=O)N(CC(=O)N[C@@H](Cc2ccccc2)C(=O)C2=NC(C)(C)CO2)C(c2ccccc2)=CN1C(=O)c1cc[n+](CC(N)=O)cc1.[I-] has melting point of 78 to 85 °C

---

# assayed system: chymase extracted from a dog cardiac tissue (Canis lupus familiaris, UniProt P21842)
# Sequence (P21842 22-249): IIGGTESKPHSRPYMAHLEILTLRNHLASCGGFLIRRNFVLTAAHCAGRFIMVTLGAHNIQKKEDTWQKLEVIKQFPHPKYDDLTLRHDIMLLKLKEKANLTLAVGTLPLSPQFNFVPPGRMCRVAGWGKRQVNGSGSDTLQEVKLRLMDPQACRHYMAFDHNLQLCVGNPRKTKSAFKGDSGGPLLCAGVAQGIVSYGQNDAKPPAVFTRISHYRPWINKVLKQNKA
property measured: IC50
Could you write the number and then its unit?

The molecule CC(C)OC(=O)C(=O)[C@H](Cc1ccccc1)NC(=O)CN1C(=O)C(C(C)C)SC=C1c1ccccc1 (mixture of isomers) on chymase extracted from a dog cardiac tissue (Canis lupus familiaris, UniProt P21842): IC50 was 320 nM

Summary line: CC(C)C1C(=O)N(CC(=O)N[C@@H](Cc2ccccc2)C(=O)C2=NC(C)(C)CO2)C(c2ccccc2)=CN1C(=O)c1ccccc1 (mixture of isomers) , chymase extracted from a dog cardiac tissue (Canis lupus familiaris, UniProt P21842), reported IC50 = 370 nM

The molecule CC(=O)N1C=C(c2ccccc2)N(CC(=O)N[C@@H](Cc2ccccc2)C(=O)C2=NCCO2)C(=O)C1C(C)C (mixture of isomers) on chymase extracted from a dog cardiac tissue (Canis lupus familiaris, UniProt P21842): IC50 was 500 nM
